# IC50 per record follows
- targetOrTestSystem: A-Raf kinase (Homo sapiens, UniProt P10398, Y301D/Y302D)
- Construct: purchased Sigma
- Sequence (P10398 with tags, fused parts or gaps Y301D/Y302D): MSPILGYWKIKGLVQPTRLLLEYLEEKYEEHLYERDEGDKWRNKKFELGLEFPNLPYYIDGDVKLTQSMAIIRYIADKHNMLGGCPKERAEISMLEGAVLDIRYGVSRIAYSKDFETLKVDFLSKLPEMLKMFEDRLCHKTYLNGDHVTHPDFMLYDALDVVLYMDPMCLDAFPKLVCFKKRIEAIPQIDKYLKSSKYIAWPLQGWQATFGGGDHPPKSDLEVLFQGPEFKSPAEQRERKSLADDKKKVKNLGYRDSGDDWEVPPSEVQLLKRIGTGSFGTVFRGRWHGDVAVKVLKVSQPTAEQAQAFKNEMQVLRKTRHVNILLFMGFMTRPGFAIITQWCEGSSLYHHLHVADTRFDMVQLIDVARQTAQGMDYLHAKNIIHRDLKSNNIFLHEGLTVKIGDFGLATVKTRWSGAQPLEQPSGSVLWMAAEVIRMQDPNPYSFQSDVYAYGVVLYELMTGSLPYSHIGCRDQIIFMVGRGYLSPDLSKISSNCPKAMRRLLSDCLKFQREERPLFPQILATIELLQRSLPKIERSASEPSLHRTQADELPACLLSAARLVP
- experiment: Biochemical assay for A-Raf.1 (coupled pyruvate kinase/lactate dehydrogenase)
- conditionDetails: read-out: ARAF.1 IC50

Worked examples follow.
itemSmiles	targetOrTestSystem	reported
Cc1cc(F)c(NC(=O)NCC23CC(F)(C2)C3)cc1-c1cc(OCCO)nc(-c2ccnc3[nH]ncc23)c1	A-Raf kinase (Homo sapiens, UniProt P10398, Y301D/Y302D)	> 1000 nM
CNc1cc(-c2cc(-c3cc(NC(=O)NCCC4(C)CC4)c(F)cc3C)cc(OCCO)n2)ccn1	A-Raf kinase (Homo sapiens, UniProt P10398, Y301D/Y302D)	> 1000 nM

Incoming: What value of IC50 has been reported for the following compound? COC(=O)Nc1cc(-c2cc(-c3cc(NC(=O)N[C@H]4C[C@](C)(F)C4)cnc3C)cc(OCCO)n2)ccn1
Outgoing: > 1000 nM

Incoming: What value of IC50 has been reported for the following compound? Cc1ncc(NC(=O)NCCC2(C)CC2)cc1-c1cc(OCCO)nc(-c2ccnc(NC(=O)C3CC3)c2)c1
Outgoing: 500 to 1000 nM

###

- targetOrTestSystem: B-Raf kinase (Homo sapiens, UniProt P15056)
- Construct: GST (N); purchased Sigma
- Sequence (P15056 416-766): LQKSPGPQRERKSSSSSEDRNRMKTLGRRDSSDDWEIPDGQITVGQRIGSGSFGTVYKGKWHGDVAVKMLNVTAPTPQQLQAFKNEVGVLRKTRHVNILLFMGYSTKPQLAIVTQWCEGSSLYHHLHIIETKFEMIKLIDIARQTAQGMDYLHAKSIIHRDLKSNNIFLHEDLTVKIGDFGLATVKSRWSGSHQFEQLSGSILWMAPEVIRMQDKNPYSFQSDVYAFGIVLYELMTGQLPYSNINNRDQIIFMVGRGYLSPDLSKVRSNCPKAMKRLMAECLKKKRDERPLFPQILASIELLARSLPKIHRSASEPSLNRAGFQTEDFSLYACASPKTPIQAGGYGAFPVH
- experiment: Biochemical assay for B-Raf.1 (coupled pyruvate kinase/lactate dehydrogenase)
- conditionDetails: read-out: BRAF.1 IC50
# IC50 per record follows

Worked examples follow.
compound	reported
Cc1cc(F)c(NC(=O)NCCC2(C)CC2)cc1-c1ccnc(-c2ccnc(NC(=O)C3CC3)c2)c1 [Example 134]	≤ 100 nM
Cc1ccc(NC(=O)N2CC[C@H](C(F)(F)F)C2)cc1-c1cccc(-c2cc(NC(=O)C3CC3)ncn2)c1 [Example 200]	≤ 100 nM
Cc1ncc(NC(=O)NC2CC(C)(C)C2)cc1-c1cc(OCCO)nc(-c2ccnc(NC(=O)C3CC3)c2)n1 [Example 144]	≤ 100 nM
Cc1cc(F)c(NC(=O)NCCC(C)(C)F)cc1-c1cc(-c2ccnc(NC(=O)C3CC3)c2)cnn1 [Example 139]	≤ 100 nM
CNC(=O)c1cc(-c2cnnc(-c3cc(NC(=O)NCCC(C)(C)OC)c(F)cc3C)c2)ccn1 [Example 123]	> 1000 nM

Incoming: What value of IC50 has been reported for the following compound? CC(=O)Nc1cc(-c2cc(-c3cc(NC(=O)NCCC4(C)CC4)c(F)cc3C)cc(NCCO)n2)ccn1 [Example 175]
Outgoing: ≤ 100 nM

Incoming: What value of IC50 has been reported for the following compound? Cc1ncc(NC(=O)NCCC(C)(C)C)cc1-c1ccnc(N2CCOCC2)c1 [Example 16]
Outgoing: 500 to 1000 nM

###

# IC50 per record follows
- targetOrTestSystem: C-Raf kinase (Homo sapiens, UniProt P04049, Y340D/Y341D)
- Construct: Y340D,; GST (N); purchased Sigma
- Sequence (P04049 307-648 Y340D/Y341D): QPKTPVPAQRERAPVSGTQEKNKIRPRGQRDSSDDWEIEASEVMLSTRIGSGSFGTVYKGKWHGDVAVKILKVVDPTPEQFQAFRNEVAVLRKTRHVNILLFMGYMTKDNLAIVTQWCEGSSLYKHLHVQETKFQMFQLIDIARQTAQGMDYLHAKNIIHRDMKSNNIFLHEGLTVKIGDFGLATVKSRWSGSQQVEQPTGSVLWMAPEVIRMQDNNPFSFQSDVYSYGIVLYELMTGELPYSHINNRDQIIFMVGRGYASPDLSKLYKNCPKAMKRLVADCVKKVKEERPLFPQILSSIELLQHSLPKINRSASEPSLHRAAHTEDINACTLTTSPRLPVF
- experiment: Biochemical assay for C-Raf.1 (coupled pyruvate kinase/lactate dehydrogenase)
- conditionDetails: read-out: CRAF.1 IC50

compound	reported
Cc1ccc(NC(=O)NC23CC4CC(CC(C4)C2)C3)cc1-c1cc(OCCO)nc(N2CCOCC2)c1 [Example 14]	0.1 to 0.5 µM
CC(=O)Nc1cc(-c2cc(-c3cc(NC(=O)NC4CCCCC4)c(F)cc3C)cc(OCCO)n2)ccn1 [Example 53]	≤ 0.1 µM
CC(=O)Nc1cc(-c2cc(-c3cc(NC(=O)NC4CC(C)(C)C4)c(F)cc3C)cc(OCCO)n2)ccn1 [Example 47]	≤ 0.1 µM
CNc1cc(-c2cc(-c3cc(NC(=O)NCCC4(C(F)(F)F)CC4)c(F)cc3C)cc(OCCO)n2)ccn1 [Example 28]	≤ 0.1 µM
CC(=O)Nc1cc(-c2cc(-c3cc(NC(=O)NCCC4(C)CC4)c(F)cc3C)cc(OCCO)n2)ccn1 [Example 33]	≤ 0.1 µM
COC(=O)Nc1cc(-c2nccc(-c3cc(NC(=O)NCCC(C)(C)OC)c(F)cc3C)n2)ccn1 [Example 129]	≤ 0.1 µM

Incoming: What value of IC50 has been reported for the following compound? CNc1cc(-c2cc(-c3cc(NC(=O)NCCC4(C)CC4)c(F)cc3C)cc(OCCO)n2)ccn1 [Example 27]
Outgoing: ≤ 0.1 µM

###

- targetOrTestSystem: B-Raf (V600E) kinase (Homo sapiens, UniProt P15056, V600E)
- Construct: B-Raf (V600E) residues 416-766 with a; GST (N); purchased SignalChem
- Sequence (P15056 416-766 V600E): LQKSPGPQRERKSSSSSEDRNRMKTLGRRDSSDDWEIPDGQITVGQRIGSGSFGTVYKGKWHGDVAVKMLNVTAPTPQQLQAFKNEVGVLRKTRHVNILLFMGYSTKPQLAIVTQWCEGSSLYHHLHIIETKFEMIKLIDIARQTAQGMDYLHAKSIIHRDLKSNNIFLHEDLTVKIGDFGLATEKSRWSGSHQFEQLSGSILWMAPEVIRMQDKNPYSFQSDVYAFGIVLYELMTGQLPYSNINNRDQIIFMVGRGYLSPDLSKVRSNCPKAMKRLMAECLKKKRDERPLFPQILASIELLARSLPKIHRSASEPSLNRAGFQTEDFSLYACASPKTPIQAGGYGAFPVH
- experiment: Biochemical assay for B-Raf (V600E).2 (coupled pyruvate kinase/lactate dehydrogenase)
- conditionDetails: read-out: BRAF V600E.2 IC50
readoutKind: IC50

Worked examples follow.
itemSmiles	IC50
CNC(=O)c1cc(-c2cncc(-c3cc(NC(=O)N4CC[C@H](C(F)(F)F)C4)ccc3C)c2)ncn1	0.1 to 0.5 µM
CNC(=O)c1cc(-c2cncc(-c3cc(NC(=O)N4CC[C@H](C(C)C)C4)ccc3C)c2)ccn1	≤ 0.1 µM
CNC(=O)c1cc(-c2cncc(-c3cc(NC(=O)N4CC[C@H](C(F)(F)F)C4)ccc3C)c2)ccn1	≤ 0.1 µM
COC(=O)Nc1cc(-c2cncc(-c3cc(NC(=O)N4CC[C@H](C(F)(F)F)C4)ccc3C)c2)ncn1	≤ 0.1 µM
Cc1ccc(NC(=O)N2CC[C@H](C)C2)cc1-c1cncc(-c2cc(NC(=O)C3CC3)ncn2)c1	≤ 0.1 µM
CNC(=O)c1cc(-c2cncc(-c3cc(NC(=O)N4CC[C@H](C(C)C)C4)ccc3C)c2)ncn1	≤ 0.1 µM
CNC(=O)c1cc(-c2cc(-c3cc(NC(=O)N4CC[C@H](C(C)C)C4)ccc3C)ccn2)ccn1	≤ 0.1 µM

Incoming: What value of IC50 has been reported for the following compound? CNC(=O)c1cc(-c2cc(-c3cc(NC(=O)N4CC[C@H](C(F)(F)F)C4)ccc3C)ccn2)ccn1
Outgoing: 0.1 to 0.5 µM

###

- Tested on: A375 cells
- experiment: A375 cell proliferation assay (1), resazurin, 96-well
- Type: cell-based
- conditionDetails: Homo sapiens, A-375, inhibition of cell proliferation
pIC50: −log10 of the molar value.
readoutKind: pIC50

Worked examples follow.
molecule	readoutKind	reported
COC(=O)Nc1cc(-c2cc(-c3cc(NC(=O)N[C@H]4C[C@](C)(F)C4)cnc3C)cc(OCCO)n2)ccn1	pIC50	5.00 to 6.00
COC(=O)Nc1cc(-c2cncc(-c3cc(NC(=O)N4CCCC4)ccc3C)c2)ccn1	pIC50	5.00 to 6.00
Cc1cc(F)c(NC(=O)NCCC(C)(C)F)cc1-c1cc(OCCO)nc(-c2ccncc2)c1	pIC50	5.00 to 6.00
CC(=O)Nc1cc(-c2cc(-c3cc(NC(=O)NCCC4(C)CC4)c(F)cc3C)ccn2)ccn1	pIC50	5.00 to 6.00
Cc1cc(F)c(NC(=O)NCCC(C)C)cc1-c1cc(OCCO)nc(-c2ccnc(NC(=O)C3CC3)c2)c1	pIC50	6.30 to 7.00
Cc1ncc(NC(=O)NCCC(C)(C)C)cc1-c1cc(-c2ccnc(NC(=O)C3CC3)c2)cnn1	pIC50	5.00 to 6.00
Cc1ccc(NC(=O)N2CC[C@@H](C(F)(F)F)C2)cc1-c1cccc(-c2cc(NC(=O)C3CC3)ncn2)c1	pIC50	6.00 to 6.30
COC(C)(C)CCNC(=O)Nc1cc(-c2cccc(-c3ccnc(NC(C)=O)c3)c2)c(C)cc1F	pIC50	5.00 to 6.00
COC(=O)Nc1cc(-c2cnnc(-c3cc(NC(=O)N4CCC(C(C)(C)O)C4)ccc3C)c2)ccn1 (stereo not drawn)	pIC50	5.00 to 6.00
CNc1cc(-c2cc(-c3cc(NC(=O)NCCC4(C)CC4)c(F)cc3C)cc(OCCO)n2)ccn1	pIC50	6.00 to 6.30

Incoming: What value of pIC50 has been reported for the following molecule? Cc1ccc(NC(=O)NCCC(C)(C)C)cc1-c1cc(-c2cnn(C)c2)nc(N2CCOCC2)c1
Outgoing: 5.00 to 6.00

Incoming: What value of pIC50 has been reported for the following molecule? Cc1cc(F)c(NC(=O)NCCC2(C)CC2)cc1-c1cc(OC2CCN(C)CC2)nc(-c2ccncc2)c1
Outgoing: 5.00 to 6.00

###

- Tested on: A375 cells
- experiment: A375 cell proliferation assay (1), resazurin, 96-well
- Type: cell-based
- conditionDetails: Homo sapiens, A-375, inhibition of cell proliferation
- Text: A375 Cell Proliferation Assay (1) […]
readoutKind: IC50

Worked examples follow.
compound	IC50
COC(=O)Nc1cc(-c2cc(-c3cc(NC(=O)NCCC4(OC)CC4)c(F)cc3C)ccn2)ccn1 [Example 145]	1000 to 10000 nM
Cc1cc(F)c(NC(=O)NCC(C)C)cc1-c1cc(OCCO)nc(-c2ccnc(NC(=O)C3CC3)c2)c1 [Example 99]	1000 to 10000 nM
COC(=O)Nc1cc(-c2nccc(-c3cc(NC(=O)NCCC4(C)CC4)cnc3C)n2)ccn1 [Example 135]	1000 to 10000 nM
Cc1ccc(NC(=O)N2CC[C@@H](C)C2)cc1-c1cncc(-c2cc(NC(=O)C3CC3)ncn2)c1 [Example 219]	500 to 1000 nM
COC(=O)Nc1cc(-c2ccnc(-c3cc(NC(=O)NCCC(C)(C)OC)c(F)cc3C)n2)ccn1 [Example 171]	1000 to 10000 nM

Incoming: What value of IC50 has been reported for the following compound? COC(=O)Nc1cc(-c2nccc(-c3cc(NC(=O)NCCC4(OC)CC4)cnc3C)n2)ccn1 [Example 143]
Outgoing: 1000 to 10000 nM

Incoming: What value of IC50 has been reported for the following compound? Cc1cc(F)c(NC(=O)NCCC2(C)CC2)cc1-c1cccc(-c2ccnc(NC(=O)C3CC3)c2)c1 [Example 64]
Outgoing: 1000 to 10000 nM

Incoming: What value of IC50 has been reported for the following compound? CNC(=O)c1cc(-c2cccc(-c3cc(NC(=O)NCCC(C)(C)OC)c(F)cc3C)c2)ccn1 [Example 72]
Outgoing: 1000 to 10000 nM

Incoming: What value of IC50 has been reported for the following compound? Cc1cc(F)c(NC(=O)NCCC(C)(C)C)cc1-c1cc(OCCO)nc(C2CCOCC2)c1 [Example 9]
Outgoing: 100 to 500 nM

Incoming: What value of IC50 has been reported for the following compound? Cc1cc(F)c(NC(=O)NCCC(C)(C)F)cc1-c1ccnc(-c2ccnc(NC(=O)C3CC3)c2)c1 [Example 159]
Outgoing: 1000 to 10000 nM

Incoming: What value of IC50 has been reported for the following compound? Cc1ncc(NC(=O)NCCC2(C)CC2)cc1-c1ccnc(-c2ccnc(NC(=O)C3CC3)c2)n1 [Example 107]
Outgoing: 1000 to 10000 nM

Incoming: What value of IC50 has been reported for the following compound? COC(=O)Nc1cc(-c2cc(-c3cc(NC(=O)NCCC4COC4)c(F)cc3C)cc(OCCO)n2)ccn1 [Example 155]
Outgoing: 1000 to 10000 nM

Incoming: What value of IC50 has been reported for the following compound? Cc1cc(F)c(NC(=O)NC2CC3(COC3)C2)cc1-c1cc(OCCO)nc(-c2ccnc3[nH]ncc23)c1 [Example 101]
Outgoing: 1000 to 10000 nM

Incoming: What value of IC50 has been reported for the following compound? COC(=O)Nc1cc(-c2cc(-c3cc(NC(=O)NCCC4(C)CC4)c(F)cc3F)cc(OCCO)n2)ccn1 [Example 188]
Outgoing: 500 to 1000 nM

Incoming: What value of IC50 has been reported for the following compound? Cc1ccc(NC(=O)NCCC(C)(C)C)cc1-c1cc(N2CCOCC2)nc(N2CCOCC2)c1 [Example 4]
Outgoing: 500 to 1000 nM

Incoming: What value of IC50 has been reported for the following compound? COC(=O)Nc1cc(-c2cc(-c3cc(NC(=O)NCCC(C)C)c(F)cc3C)cc(OCCO)n2)ccn1 [Example 115]
Outgoing: 100 to 500 nM

Incoming: What value of IC50 has been reported for the following compound? Cc1cc(F)c(NC(=O)NCCC2(C(F)(F)F)CC2)cc1-c1cc(N2CCOCC2)nc(N2CC(N(C)C)C2)n1 [Example 30]
Outgoing: 1000 to 10000 nM

Incoming: What value of IC50 has been reported for the following compound? COC(=O)Nc1cc(-c2cc(-c3cc(NC(=O)NC[C@H]4CCO4)c(F)cc3C)cc(OCCO)n2)ccn1 [Example 96]
Outgoing: 1000 to 10000 nM

Incoming: What value of IC50 has been reported for the following compound? Cc1ccc(NC(=O)Nc2cn(C)nc2C(F)(F)F)cc1-c1cc(OCCO)nc(N2CCOCC2)c1 [Example 42]
Outgoing: 1000 to 10000 nM

Incoming: What value of IC50 has been reported for the following compound? CC(=O)Nc1cc(-c2cc(-c3cc(NC(=O)NCCC4(C)CC4)c(F)cc3C)cc(C3CC3)n2)ccn1 [Example 51]
Outgoing: 1000 to 10000 nM

Incoming: What value of IC50 has been reported for the following compound? COC(=O)Nc1cc(-c2cccc(-c3cc(NC(=O)NCCC4(OC)CC4)cnc3C)c2)ncn1 [Example 138]
Outgoing: 1000 to 10000 nM

Incoming: What value of IC50 has been reported for the following compound? Cc1cc(F)c(NC(=O)N2CCC(C)(C#N)CC2)cc1-c1cc(OCCO)nc(-c2ccnc3[nH]ncc23)c1 [Example 92]
Outgoing: 1000 to 10000 nM

Incoming: What value of IC50 has been reported for the following compound? CNC(=O)c1cc(-c2cnnc(-c3cc(NC(=O)N4CC[C@@H](OC(F)(F)F)C4)ccc3C)c2)ccn1 [Example 182]
Outgoing: 1000 to 10000 nM

Incoming: What value of IC50 has been reported for the following compound? Cc1cc(F)c(NC(=O)NCCC2(C)CC2)cc1-c1cc(OCCO)nc(-c2ccnc(NC(=O)C3CC3)c2)c1 [Example 76]
Outgoing: ≤ 100 nM

Incoming: What value of IC50 has been reported for the following compound? Cc1cc(F)c(NC(=O)NCCC2(C)CC2)cc1-c1cnnc(-c2ccnc(NC(=O)C3CC3)c2)c1 [Example 168]
Outgoing: 100 to 500 nM

Incoming: What value of IC50 has been reported for the following compound? COC1(CCNC(=O)Nc2cc(-c3cccc(-c4cc(NC(=O)C5CC5)ncn4)c3)c(C)cc2F)CC1 [Example 104]
Outgoing: 1000 to 10000 nM

Incoming: What value of IC50 has been reported for the following compound? Cc1ccc(NC(=O)N[C@H]2C[C@](C)(F)C2)cc1-c1cc(OCCO)nc(-c2ccnc(NC(=O)CN(C)C)c2)c1 [Example 50]
Outgoing: 1000 to 10000 nM

All figures here come from patent US20230357179A1.
